# Assay Remarks: Pharmacokinetics of salt forms, single IV dose
# Assay type: in vivo, CD-1 mice
# Particulars: male, CD-1, mouse, in vivo, iv, 1 mg/kg
Metric: half-life (h)
Use h as the unit, but write only the number.

# compound COCCOc1cnc(Sc2cc(C)c(-c3csc(NC(=O)c4ccncc4)n3)c(C)c2)cn1.Cl [110095-HCl-1007] ; its half-life = 3.61

###

# Assay Remarks: Pharmacokinetics of salt forms, single oral dose
# Format: in vivo, CD-1 mice
# Particulars: male, CD-1, mouse, plasma; PO 10 mg/kg, 24 h; read-out: mean concentration of 110095 in mouse plasma
Metric: concentration at 24 h (ng/mL)
Use ng/mL as the unit, but write only the number.

# molecule COCCOc1cnc(Sc2cc(C)c(-c3csc(NC(=O)c4ccncc4)n3)c(C)c2)cn1.Cl [110095-HCl-1007] ; its concentration at 24 h = 14.8

###

# Assay Remarks: Pharmacokinetics of salt forms, single oral dose
# Assay type: in vivo, CD-1 mice
# Particulars: male, CD-1, mouse, plasma; PO 10.0 mg/kg
Metric: AUC(0-t)
Field: value (include unit after the number)

# compound COCCOc1cnc(Sc2cc(C)c(-c3csc(NC(=O)c4ccncc4)n3)c(C)c2)cn1.Cl [110095-HCl-1007] ; its AUC(0-t) = 25100 ng·h/mL

###

# Assay Remarks: Pharmacokinetics of salt forms, single oral dose
# Assay type: in vivo, CD-1 mice
# Particulars: male, CD-1, mouse, plasma; PO 10.0 mg/kg
# Protocol: Pharmacokinetics of Hec1 Inhibitor Salts: Pharmacokinetic comparison of different salt forms (HCl, tosylate, mesylate salt) was studied for the compounds as shown in Table 3 below: […] The plasma concentrations of 110095 (compound 27 of Table 1, the free base of all three test articles) were determined by LC MS/MS in the positive MRM mode; all doses were normalized to the freebase (110095) concentration. […]
Metric: half-life (h)
Use h as the unit, but write only the number.

# compound COCCOc1cnc(Sc2cc(C)c(-c3csc(NC(=O)c4ccncc4)n3)c(C)c2)cn1.Cl [110095-HCl-1007] ; its half-life = 2.81

###

# Assay Remarks: Pharmacokinetics of salt forms, single oral dose
# Type: in vivo, CD-1 mice
# Particulars: male, CD-1, mouse, plasma; PO 10.0 mg/kg
Metric: Cmax (ng/mL)
Use ng/mL as the unit, but write only the number.

# molecule COCCOc1cnc(Sc2cc(C)c(-c3csc(NC(=O)c4ccncc4)n3)c(C)c2)cn1.Cl [110095-HCl-1007] ; its Cmax = 4060

###

# Assay Remarks: Pharmacokinetics of salt forms, single IV dose
# Assay type: in vivo, CD-1 mice
# Particulars: male, CD-1, mouse, plasma; IV 1 mg/kg, 2 h; read-out: mean concentration of 110095 in mouse plasma
Metric: concentration at 2 h (ng/mL)
Use ng/mL as the unit, but write only the number.

# compound COCCOc1cnc(Sc2cc(C)c(-c3csc(NC(=O)c4ccncc4)n3)c(C)c2)cn1.Cl [110095-HCl-1007] ; its concentration at 2 h = 422

###

# Assay Remarks: Pharmacokinetics of salt forms, single IV dose
# Type: in vivo, CD-1 mice
# Particulars: male, CD-1, mouse, plasma; IV 1 mg/kg, 0.5 h; read-out: mean concentration of 110095 in mouse plasma
Metric: concentration at 0.5 h (ng/mL)
Use ng/mL as the unit, but write only the number.

# compound COCCOc1cnc(Sc2cc(C)c(-c3csc(NC(=O)c4ccncc4)n3)c(C)c2)cn1.Cl [110095-HCl-1007] ; its concentration at 0.5 h = 684
